glycan array binding signal (z-score) reference
target: Gal(b1-3)GlcNAc(b1-3)Gal(b1-4)Glc; assay: glycan array binding signal (z-score within array); higher = stronger binding; conditions: glycan notation: IUPAC condensed, linker removed
The sample as a whole holds a higher share of the strongest signals than the screen did.
metric: glycan array binding signal (z-score)

binder="SP15308A-bot-339-19-339 (Bacteroides ovatus) (protein) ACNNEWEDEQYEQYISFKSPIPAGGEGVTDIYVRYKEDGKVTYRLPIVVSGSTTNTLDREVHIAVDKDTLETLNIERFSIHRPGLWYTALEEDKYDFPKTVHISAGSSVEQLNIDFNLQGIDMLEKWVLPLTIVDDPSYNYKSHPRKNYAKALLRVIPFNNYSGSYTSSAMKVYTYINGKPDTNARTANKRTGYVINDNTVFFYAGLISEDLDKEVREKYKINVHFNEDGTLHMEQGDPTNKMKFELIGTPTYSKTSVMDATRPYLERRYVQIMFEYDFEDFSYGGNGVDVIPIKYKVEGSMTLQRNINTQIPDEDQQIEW" reading=-0.437
binder="rMpL (Macrolepiota procera) (protein) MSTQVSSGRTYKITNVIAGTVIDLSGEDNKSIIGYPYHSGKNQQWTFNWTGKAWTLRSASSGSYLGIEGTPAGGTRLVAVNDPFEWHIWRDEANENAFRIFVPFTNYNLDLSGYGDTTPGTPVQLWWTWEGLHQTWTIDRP" reading=0.808
binder="Langerin K313I (Homo sapiens), Q9UJ71 (protein) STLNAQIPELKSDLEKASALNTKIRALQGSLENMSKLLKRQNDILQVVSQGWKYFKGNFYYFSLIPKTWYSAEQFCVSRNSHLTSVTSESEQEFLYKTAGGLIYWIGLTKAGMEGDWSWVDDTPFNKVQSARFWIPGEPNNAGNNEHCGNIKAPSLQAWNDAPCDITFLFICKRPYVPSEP" reading=-0.361
binder="SynCAM (Mus musculus) (protein) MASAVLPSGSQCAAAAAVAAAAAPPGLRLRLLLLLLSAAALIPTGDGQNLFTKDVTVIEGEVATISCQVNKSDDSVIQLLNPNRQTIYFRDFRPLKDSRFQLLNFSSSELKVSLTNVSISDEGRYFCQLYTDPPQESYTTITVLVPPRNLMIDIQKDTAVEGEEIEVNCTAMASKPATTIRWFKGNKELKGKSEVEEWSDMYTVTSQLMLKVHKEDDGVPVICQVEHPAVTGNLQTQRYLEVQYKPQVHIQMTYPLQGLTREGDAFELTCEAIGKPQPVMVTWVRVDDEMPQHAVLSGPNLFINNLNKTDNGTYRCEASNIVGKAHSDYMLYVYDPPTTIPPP" reading=0.308
binder="DC-SIGN (Canis lupus), XP_853402 (protein) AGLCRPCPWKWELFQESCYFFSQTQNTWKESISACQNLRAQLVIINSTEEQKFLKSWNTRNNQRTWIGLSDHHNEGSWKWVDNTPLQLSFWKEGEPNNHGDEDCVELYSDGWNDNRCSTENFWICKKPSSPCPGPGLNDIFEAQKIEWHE" reading=-0.172

Each recorded value in this set is attributed to the supplement of paper PMC8728848.
